Data provenance: paper PMC5984625

# measurement target: ΔN-TClpB (Thermus thermophilus, UniProt Q9RA63)
# Construct: N-terminal domain deletion (AAA1, M-domain and AAA2 kept); from plasmid pMCB1; purified; hexamer and smaller oligomers
# Sequence (Q9RA63 141-854, stated change not applied): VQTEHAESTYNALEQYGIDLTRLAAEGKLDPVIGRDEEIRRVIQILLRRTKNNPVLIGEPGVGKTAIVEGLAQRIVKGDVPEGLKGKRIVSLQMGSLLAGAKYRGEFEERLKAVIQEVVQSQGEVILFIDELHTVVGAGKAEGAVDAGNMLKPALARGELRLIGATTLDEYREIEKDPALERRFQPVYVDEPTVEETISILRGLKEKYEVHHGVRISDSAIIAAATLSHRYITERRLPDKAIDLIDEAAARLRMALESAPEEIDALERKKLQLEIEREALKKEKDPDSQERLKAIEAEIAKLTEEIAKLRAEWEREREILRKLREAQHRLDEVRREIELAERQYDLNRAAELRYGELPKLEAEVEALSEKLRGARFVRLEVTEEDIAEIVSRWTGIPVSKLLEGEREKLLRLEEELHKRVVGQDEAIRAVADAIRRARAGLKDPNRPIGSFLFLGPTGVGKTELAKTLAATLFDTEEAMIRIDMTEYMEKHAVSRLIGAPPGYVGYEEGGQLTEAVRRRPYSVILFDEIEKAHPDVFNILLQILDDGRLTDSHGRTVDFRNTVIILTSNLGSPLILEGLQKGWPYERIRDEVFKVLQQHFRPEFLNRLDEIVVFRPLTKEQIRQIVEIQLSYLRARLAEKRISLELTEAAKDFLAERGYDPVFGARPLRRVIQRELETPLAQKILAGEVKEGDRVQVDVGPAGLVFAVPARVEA
# assay comment: fluorescence displacement of mant-ADP
# run conditions: per monomer; competitive binding model; 12.5 μM mant-ADP; Mg-ATP; pH 7.5, 20 mM KCl, 5 mM MgCl2, 25 °C; read-out: apparent Kd
readout: Kd (µM)
Report the value in µM with no unit label.

Observed Kd on ΔN-TClpB (Thermus thermophilus, UniProt Q9RA63), entry Nc1ncnc2c1ncn2[C@@H]1O[C@H](COP(=O)(O)OP(=O)(O)OP(=O)(O)O)[C@@H](O)[C@H]1O , equals 9.2
